Entry source: ChEMBL document CHEMBL4834433

- experiment description: Microsomal stability in monkey microsomes assessed as parent compound remaining at […] measured after 10 mins
- Assay type: ADME, Macaca mulatta, Liver, Microsome
- measurement setup: rhesus monkey, read-out: Stabilty
As shown below, each of these compounds has a reported remaining at 10 min value.
result type: remaining at 10 min (%)

[[record]]
smiles_record = "O=C(C[C@@H]1Cc2cc(Cl)c3c(c2CN(CC(F)(F)F)C1=O)C(F)(F)C(=O)N3)N1CCC(N2CCc3ccccc3NC2=O)CC1"
experimental_result = 8.1

[[record]]
smiles_record = "O=C(C[C@@H]1Cc2cc(Cl)c3[nH]cnc3c2CN(CC(F)(F)F)C1=O)N1CCC(N2CCc3ccccc3NC2=O)CC1"
experimental_result = 24

[[record]]
smiles_record = "N#Cc1c[nH]c2c(Cl)cc3c(c12)CN(CC(F)(F)F)C(=O)[C@H](CC(=O)N1CCC(n2c(=O)[nH]c4ncccc42)CC1)C3"
experimental_result = 7

[[record]]
smiles_record = "N#Cc1c[nH]c2c(Cl)cc3c(c12)CN(CC(F)(F)F)C(=O)[C@H](CC(=O)N1CCC(N2CCc4ccccc4NC2=O)CC1)C3"
experimental_result = 26

